Ref: paper PMC2756588

- assay_system: T1, Pin3, Q06449
- T1 sequence (Q06449 53-122, looked up): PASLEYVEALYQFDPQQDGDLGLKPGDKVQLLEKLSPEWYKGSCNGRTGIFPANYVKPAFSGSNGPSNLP
- protocol_summary: SPOT array
- condition_info: median of control spots 2171
observation_type: SPOT intensity
Answer with a bare number; do not write a unit.

Take a look at these entries with their results.
For the binder shown here, VPPPMQPPPIESSNL , give the reported SPOT intensity. 114

Query: SPOT intensity; subject: DFTLPPPPPPPGLDE 0

Request the reported SPOT intensity associated with NRLRKRLNLPSEISI 17

Any idea what SPOT intensity was measured for RKLRTVPGVPLIHLT ? 3

What value of SPOT intensity has been recorded for this entry: GDHPKGPPPPPPPPD 0

Others:
Given the binder DLPLPDLPPEPPTEL , what is its reported SPOT intensity? 0

Item under review: RRGPAPPPPPRASRP . Reported SPOT intensity? 17

Recorded SPOT intensity of DTFLPPPPPPPSNFE , please. 0

Which measured SPOT intensity value corresponds to MAMRPIPPLPTESEY ? 4

Dear colleague, I am looking for the recorded SPOT intensity of the following binder: RKNRAPPQRPRFNRD 9

Reported SPOT intensity for LPPPPPPPPPPPLPQ : what is it? 0

So what does the record say about SPOT intensity for KFIPSRPAPKPPSSA ? 8

Entry under review: GKLKHIPRRPYEIER . Reported SPOT intensity? 4

Given the entry FPGKKSPRLPHRNKK , report its measured SPOT intensity. 0

// SPOT intensity lookup, key: NFKRLLPRDPSEKSS 7

What value of measured SPOT intensity is listed for TKHKAPPPPPPTAET ? 0

Find the recorded SPOT intensity belonging to RSKRLFPVRPMATAH and report it. 12

Entry LSKRLPLRFPEHTSS : reported SPOT intensity = ? 0
